Exercise: for every item that follows, state its recorded protein stability index.
B1: IKZF1 (parent)
chain: YHSQDRYEFSSHITRGEHRFHMS

Variants of: B1
Protocol Description: protein stability index of a GFP-peptide fusion (GPS, HEK-293T) (PSI 1-6); higher = more stable;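 further: lentivirally expressed fusions sorted by FACS into six bins by GFP to DsRed ratio, PSI derived from sequencing read proportions per bin multiplied by bin number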
Condition Parameters: c terminus: native
Give bare numbers.

Worked cases, answers included:
# Mutant Label, Measurement
records = [
    ("F9L", 1.96),
    ("H21T", 2.04),
    ("S23V", 1.97),
]

// batch mode: one protein stability index value per listed entry
1. H18L
2. E8V

OUTPUT:
1.99
1.98
